experiment: Human HepG2 cell viability assay in 384 well format; type: toxicity, cell-based; design: dose 125 nL, time 70.5 hour; concentration not given beside the values; details: HepG2 cells, read-out: Inhibition
cytotoxicity at 70.5 h overview
endpoint.label: cytotoxicity at 70.5 h (%)

- COc1ccc(C(=O)N2CCN(C(=O)c3csc(C(C)C)n3)CC2)cc1: 28
- Cc1noc(C)c1-c1cc(CCC2CN(C(=O)C(C)C)CCO2)ncn1 (stereo not drawn): -3.99
- COc1ccc(CN2CCCn3cnc(COCC4CC4)c3C2)cc1: 1.46
- Cc1nccn1[C@@H]1CC[C@@H](N(C)S(=O)(=O)c2ccc(F)cc2)[C@H]1O: -3.16
- COc1cccc(CNCC2CCN(CC(C)O)CC2)c1OC (stereo not drawn): -5.57
- CCOC1CCCN(C(=O)c2[nH]nc(C3CC3)c2Br)C1 (stereo not drawn): -6.37
- CC(C)CC(NC(=O)c1ccc[nH]1)C(=O)N1CCC(CO)CC1 (stereo not drawn): -11.2
- CCS(=O)(=O)N1Cc2nnn(C)c2C(COCCN(C)C)C1 (stereo not drawn): -0.313
- Cc1ccc2[nH]c(C(=O)NCCCn3ccnn3)c(C)c2c1: 22.6
- Cc1cccc(CN2C[C@@H](CN3CCCN(C)CC3)[C@@H](CO)C2)n1: 26.4
- Cc1nsc(NC(=O)N2CCCCC2CCO)n1 (stereo not drawn): -6.53
- CCc1cnc(N2CCC(=O)N(CC3CC3)C(C(C)C)C2)nc1 (stereo not drawn): 8.36
- Cc1noc(C)c1CN1CCCC2(CCN(C(=O)CC3CC3)C2)C1 (stereo not drawn): 41.6
- COc1ccc(F)cc1C(=O)N1C[C@H]2CC[C@@H]1CN(c1ncccn1)C2: -9.41
- CN(C)Cc1nn(C)c2c1CCN(S(=O)(=O)c1cccs1)C2: 1.38
- CCN(c1ccc(C(=O)N2CCCCCC2)cc1)S(=O)(=O)CC: -2.32
- CCN(CC)Cc1cn2c(n1)CN(C(=O)c1cnccn1)CC2: -13.4
- Cc1[nH]c(=O)[nH]c(=O)c1CN1CCCC(CCc2ccccc2F)C1 (stereo not drawn): -5.63
- CCN1C[C@H]2CCN(c3ncccn3)CC[C@H]2S1(=O)=O: 1.89
- CC(c1ncc(-c2ccccc2)o1)N1CCN(C(=O)C(C)(C)C)CC1 (stereo not drawn): -25.9
- N#Cc1cccc(N2CC3(CCN(C(=O)c4ccncc4)C3)CC2=O)c1 (stereo not drawn): -5.96
- Cc1ncsc1C(=O)NCCN1CCCCCC1=O: -12.3
- Cc1csc(Nc2nccnc2C2CCCN2S(C)(=O)=O)n1 (stereo not drawn): -12.8
- Cc1cnn(CC2CN(Cc3nc(C)c(C)o3)CCO2)c1 (stereo not drawn): 1.07
- COc1ccc2c(c1)CCCN2C(=O)c1cccc(N(C)C)c1: 3.26
- CS(=O)(=O)N1CCC(n2nnn(-c3ccccc3)c2=O)CC1: -1.71
- CCN(CC)CCn1cnc(-c2ccccc2)c1-c1cnc(C)s1: -7.41
- Cc1noc(C2CCCN(C(=O)c3ccc(Br)o3)C2)n1 (stereo not drawn): 19.7
- Cn1ccnc1CCC1CCCCN1Cc1cnc(N2CCCC2)nc1 (stereo not drawn): 22.9
- CS(=O)(=O)N1CCOCC2(CN(Cc3ccco3)CCO2)C1 (stereo not drawn): -3.82
- CN(C)CCN1CCN(C)c2nc(-c3ccccc3)ncc2C1=O: -9.02
- CCNC(=O)[C@@H]1C[C@H](NC(=O)c2cc(CC)n[nH]2)CN1Cc1ccsc1: -6.78
- CC1(NC(=O)Cc2csc(-c3cccc(Cl)c3)n2)CCS(=O)(=O)C1 (stereo not drawn): -63.1
